- assay-details: Hansen solubility parameter (SP value and terms) of reagents
- Type: physicochemical
- Design: unit: MPa^0.5
- assay-conditions: SP^2=δD^2+δP^2+δH^2
assay-endpoint: SP value
Please give only the number in your answer, with no unit.

{"structure-string": "CCO[Si](CCCN)(OCC)OCC", "assay-endpoint": "SP value", "value-measured": 15.2}
{"structure-string": "CO[Si](CCCNCCCCCCN)(OC)OC", "assay-endpoint": "SP value", "value-measured": 15.3}
{"structure-string": "CO[Si](CCCNCCN)(OC)OC", "assay-endpoint": "SP value", "value-measured": 16.2}
{"structure-string": "CO[Si](CCCN)(OC)OC", "assay-endpoint": "SP value", "value-measured": 15.8}
{"structure-string": "CO[Si](C)(OC)OC", "assay-endpoint": "SP value", "value-measured": 15.2}

From here, focus on the item given below.
response.value for "CCO[Si](CCCNCCN)(OCC)OCC" (field: SP value) = 15.6
